- tested_system: hemoglobin (Homo sapiens, UniProt P68871+P69905)
- Sequence (P69905 2-142): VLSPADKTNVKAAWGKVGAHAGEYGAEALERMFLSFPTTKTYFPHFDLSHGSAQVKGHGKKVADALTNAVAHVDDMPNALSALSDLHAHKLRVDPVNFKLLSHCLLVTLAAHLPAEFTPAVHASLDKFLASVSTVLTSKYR
- Sequence (P68871 2-147): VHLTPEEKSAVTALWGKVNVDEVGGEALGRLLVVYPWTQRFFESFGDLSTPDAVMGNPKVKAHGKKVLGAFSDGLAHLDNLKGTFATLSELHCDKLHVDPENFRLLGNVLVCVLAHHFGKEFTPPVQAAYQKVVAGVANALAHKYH
- test_protocol: Stability of hemoglobin in samples preserved at 37° C. in preservation solution containing no haptoglobin, Hb measured by latex agglutination method (Examples 8, 9 and Table 10)
- measurement_parameters: No feces; 16 h at 37° C.; no phenylboronic acid, sugar 100 mmol/L
measured_quantity: Hb concentration
Answer with the figure and its unit, nothing else.

Task: Fill blank: measured Hb concentration of the molecule `OC[C@@H](O)[C@@H](O)[C@H](O)[C@H](O)CO` is ____.
Output: 254 µg/L

Task: Please report the recorded Hb concentration for `O=C(CO)[C@@H](O)[C@H](O)[C@H](O)CO` .
Output: 246 µg/L

Task: # input molecule: `OC[C@@H](O)[C@@H](O)[C@H](O)[C@@H](O)CO` ; wanted: its Hb concentration
Output: 263 µg/L

Task: Returns the measured Hb concentration for the input molecule. Input: `OC[C@H]1O[C@@](CO)(O[C@H]2O[C@H](CO)[C@@H](O)[C@H](O)[C@H]2O)[C@@H](O)[C@@H]1O`
Output: 245 µg/L

Task: Tell me the measured Hb concentration of `OC[C@H]1O[C@H](O[C@H]2O[C@H](CO)[C@@H](O)[C@H](O)[C@H]2O)[C@H](O)[C@@H](O)[C@@H]1O` , please.
Output: 241 µg/L

* * *

So I've got a bunch of compounds here, and I need their Hb concentration values.
- tested_system: hemoglobin (Homo sapiens, UniProt P68871+P69905)
- test_protocol: Stability of hemoglobin in samples preserved at 37° C. in preservation solution containing no haptoglobin, Hb measured by latex agglutination method (Examples 8, 9 and Table 10)
- measurement_parameters: No feces; 0 h at 37° C.; no phenylboronic acid, sugar 100 mmol/L
// return numeric value only (unit: µg/L, not printed)

Task: // query Hb concentration value for entry `O=C(CO)[C@@H](O)[C@H](O)[C@H](O)CO`
Output: 284

Task: Recorded Hb concentration of `OC[C@@H](O)[C@@H](O)[C@H](O)[C@H](O)CO` , please.
Output: 281

Task: // Hb concentration lookup, key: `OC[C@H]1O[C@@](CO)(O[C@H]2O[C@H](CO)[C@@H](O)[C@H](O)[C@H]2O)[C@@H](O)[C@@H]1O`
Output: 278

Task: Fill in the blank: the reported Hb concentration of `OC[C@@H](O)[C@@H](O)[C@H](O)[C@@H](O)CO` is ____.
Output: 300

Task: Which Hb concentration value is on record for `OC[C@H]1O[C@H](O[C@H]2O[C@H](CO)[C@@H](O)[C@H](O)[C@H]2O)[C@H](O)[C@@H](O)[C@@H]1O` ?
Output: 280

* * *

- Test system: hemoglobin-haptoglobin complex
- test_protocol: Stability of hemoglobin (as hemoglobin-haptoglobin complex) in samples preserved at 37° C. in preservation solution containing 1 unit/L haptoglobin, Hb measured by latex agglutination method (Examples 1 to 7)
- Design: species or system human
- measurement_parameters: Feces 3; sugar 100 mmol/L + phenylboronic acid 15 mmol/L; 37° C., 21 days
For each entry below, report its Hb concentration value.
Give just the numeric value; µg/L need not be written.

Task: Item `OC[C@H]1O[C@H](O[C@H]2O[C@H](CO)[C@@H](O)[C@H](O)[C@H]2O)[C@H](O)[C@@H](O)[C@@H]1O` with hemoglobin-haptoglobin complex - Hb concentration?
Output: 179

Task: Tell me reported Hb concentration for `O=C(CO)[C@@H](O)[C@H](O)[C@H](O)CO` , tested with hemoglobin-haptoglobin complex.
Output: 204

Task: Record `OC[C@@H](O)[C@@H](O)[C@H](O)[C@@H](O)CO` : what is its Hb concentration with hemoglobin-haptoglobin complex?
Output: 219

Task: Lab note: need Hb concentration for `OC[C@H]1O[C@@](CO)(O[C@H]2O[C@H](CO)[C@@H](O)[C@H](O)[C@H]2O)[C@@H](O)[C@@H]1O` on hemoglobin-haptoglobin complex, anyone have it?
Output: 187

* * *

- System: hemoglobin-haptoglobin complex
- test_protocol: Stability of hemoglobin (as hemoglobin-haptoglobin complex) in samples preserved at 37° C. in preservation solution containing 1 unit/L haptoglobin, Hb measured by latex agglutination method (Examples 1 to 7)
- Design: species or system human
- measurement_parameters: Feces 2; sugar 50 mmol/L + phenylboronic acid 15 mmol/L; 37° C., 14 days
measured_quantity: Hb concentration (µg/L)
Numbers only here, please. The scale is µg/L.

Task: Query: Hb concentration; subject: `OC[C@@H](O)[C@@H](O)[C@H](O)[C@@H](O)CO`
Output: 252

Task: Request the reported Hb concentration associated with `OC[C@H]1O[C@H](O[C@H]2O[C@H](CO)[C@@H](O)[C@H](O)[C@H]2O)[C@H](O)[C@@H](O)[C@@H]1O`
Output: 223

Task: Fill in: Hb concentration of `O=C(CO)[C@@H](O)[C@H](O)[C@H](O)CO` is ___
Output: 243

Task: // query Hb concentration value for entry `OC[C@H]1O[C@@](CO)(O[C@H]2O[C@H](CO)[C@@H](O)[C@H](O)[C@H]2O)[C@@H](O)[C@@H]1O`
Output: 232

Task: Which Hb concentration is reported for this compound? `OC[C@@H](O)[C@@H](O)[C@H](O)[C@H](O)CO`
Output: 280

* * *

- Test system: hemoglobin-haptoglobin complex
- test_protocol: Stability of hemoglobin (as hemoglobin-haptoglobin complex) in samples preserved at 37° C. in preservation solution containing 1 unit/L haptoglobin, Hb measured by latex agglutination method (Examples 1 to 7)
- Parameters: species or system human
- measurement_parameters: Feces 3; arylboronic acid 15 mmol/L; 37° C., 7 days
- Protocol: Preservation solutions were prepared with the addition of 40 mmol/L HEPES (pH 6.8), 0.1% BSA, 0.1% NaN3, 1 unit/L haptoglobin, and 0 to 100 mmol/L phenylboronic acid. Samples obtained by adding hemoglobin-added fecal specimens to the preservation solutions so that the fecal concentration would be 0.5% were preserved at 37° C. for 0, 7, 14, and 21 days. […] The hemoglobin (Hb) concentrations (μg/L) in the preserved samples were measured by the latex agglutination method. […]
Provide the recorded Recovery ratio with respect to Hb after 0 days for the entries that follow.
Answer format: numeric, % implied, no suffix.

Task: I'm curious: which Recovery ratio with respect to Hb after 0 days was measured for `O=C(O)c1cccc(B(O)O)c1` tested on hemoglobin-haptoglobin complex?
Output: 71

Task: // lookup Recovery ratio with respect to Hb after 0 days | system=hemoglobin-haptoglobin complex | key= `O=C(O)c1ccc(B(O)O)cc1`
Output: 73

Task: Short answer please: Recovery ratio with respect to Hb after 0 days, hemoglobin-haptoglobin complex, entry OB(O)c1cccc(O)c1 [3H-PBA, 3-hydroxyphenylboronic acid]
Output: 68

Task: # returns recorded Recovery ratio with respect to Hb after 0 days (system: hemoglobin-haptoglobin complex) for `O=C(O)c1ccccc1B(O)O`
Output: 41

* * *

- Tested on: hemoglobin-haptoglobin complex
- test_protocol: Stability of hemoglobin (as hemoglobin-haptoglobin complex) in samples preserved at 37° C. in preservation solution containing 1 unit/L haptoglobin, Hb measured by latex agglutination method (Examples 1 to 7)
- Design: species or system human
- measurement_parameters: Feces 1; arylboronic acid 15 mmol/L; 37° C., 7 days
measured_quantity: Recovery ratio with respect to Hb after 0 days
Write the quantity with the unit trailing the number.

Task: So what's the measured Recovery ratio with respect to Hb after 0 days for this one? `O=C(O)c1ccc(B(O)O)cc1`
Output: 81%

Task: Look at this molecule and give its reported Recovery ratio with respect to Hb after 0 days. `O=C(O)c1ccccc1B(O)O`
Output: 62%

Task: Field request: Recovery ratio with respect to Hb after 0 days | item: `O=C(O)c1cccc(B(O)O)c1`
Output: 81%

Task: // Recovery ratio with respect to Hb after 0 days lookup, key: OB(O)c1cccc(O)c1 [3H-PBA, 3-hydroxyphenylboronic acid]
Output: 82%

* * *

Please respond with reported Recovery ratio with respect to Hb after 0 days for every item in the list.
- tested_system: hemoglobin (Homo sapiens, UniProt P68871+P69905)
- test_protocol: Stability of hemoglobin in samples preserved at 37° C. in preservation solution containing no haptoglobin, Hb measured by latex agglutination method (Examples 8, 9 and Table 10)
- measurement_parameters: Feces 1; 38 h at 37° C.; no phenylboronic acid, sugar 100 mmol/L
Express it in %; write the number only.

Task: May I ask what Recovery ratio with respect to Hb after 0 days has been recorded for `OC[C@@H](O)[C@@H](O)[C@H](O)[C@@H](O)CO` ?
Output: 13

Task: State the recorded Recovery ratio with respect to Hb after 0 days for this entry: `OC[C@H]1O[C@H](O[C@H]2O[C@H](CO)[C@@H](O)[C@H](O)[C@H]2O)[C@H](O)[C@@H](O)[C@@H]1O`
Output: 15

Task: Reported Recovery ratio with respect to Hb after 0 days, compound `O=C(CO)[C@@H](O)[C@H](O)[C@H](O)CO` : ____
Output: 12

Task: Fill in: Recovery ratio with respect to Hb after 0 days of `OC[C@@H](O)[C@@H](O)[C@H](O)[C@H](O)CO` is ___
Output: 10

Task: Give the measured Recovery ratio with respect to Hb after 0 days of `OC[C@H]1O[C@@](CO)(O[C@H]2O[C@H](CO)[C@@H](O)[C@H](O)[C@H]2O)[C@@H](O)[C@@H]1O` .
Output: 16

All values here come from patent US12215140B2.
